src = patent US10882867B2

Assay: Approximate solubility of Compound 1 Form A at room temperature
Format: physicochemical
Conditions: MIBK (methyl isobutyl ketone), organic solvent or mixture, thermodynamic from solid, MIBK, 1 day
readoutKind: solubility at 1 day

Entry CCOCc1cnc(Cl)nc1Oc1ccc2c(ccc3sc4c(c32)NC[C@@H](C)NC4=O)n1 [Form A] ; solubility at 1 day = < 1000 µg/mL

* * *

Test: Approximate solubility of Compound 1 Form A at room temperature
Format: physicochemical
Settings: MeOH (methanol), organic solvent or mixture, thermodynamic from solid, MeOH, 1 day
readoutKind: solubility at 1 day

Entry CCOCc1cnc(Cl)nc1Oc1ccc2c(ccc3sc4c(c32)NC[C@@H](C)NC4=O)n1 [Form A] ; solubility at 1 day = < 3000 µg/mL

* * *

Assay: Approximate solubility of Compound 1 Form A at room temperature
Format: physicochemical
Conditions: water, thermodynamic from solid, 1 day
readoutKind: solubility at 1 day

Entry CCOCc1cnc(Cl)nc1Oc1ccc2c(ccc3sc4c(c32)NC[C@@H](C)NC4=O)n1 [Form A] ; solubility at 1 day = < 1000 µg/mL

* * *

Test: Approximate solubility of Compound 1 Form A at room temperature
Assay type: physicochemical
Conditions: DMA (dimethylacetamide), organic solvent or mixture, thermodynamic from solid, DMA, 1 day
readoutKind: solubility at 1 day

Entry CCOCc1cnc(Cl)nc1Oc1ccc2c(ccc3sc4c(c32)NC[C@@H](C)NC4=O)n1 [Form A] ; solubility at 1 day = > 50 mg/mL

* * *

Test: Form conversion (form transfer) experiments: slurry, compression, heating, humidity cycle
Assay type: physicochemical
Details: 0-90-0% RH cycle in DVS, 25° C.

compound | Resulting Form(s)
CCOCc1cnc(Cl)nc1Oc1ccc2c(ccc3sc4c(c32)NC[C@@H](C)NC4=O)n1 [Form A] | No form change
CCOCc1cnc(Cl)nc1Oc1ccc2c(ccc3sc4c(c32)NC[C@@H](C)NC4=O)n1 [Form D] | No form change
CCOCc1cnc(Cl)nc1Oc1ccc2c(ccc3sc4c(c32)NC[C@@H](C)NC4=O)n1 [Form E] | No form change

* * *

Experiment: Approximate solubility of Compound 1 Form A at room temperature
Format: physicochemical
Conditions: NMP (N-methylpyrrolidone), organic solvent or mixture, thermodynamic from solid, NMP, 1 day
Source text: […]
readoutKind: solubility at 1 day

Entry CCOCc1cnc(Cl)nc1Oc1ccc2c(ccc3sc4c(c32)NC[C@@H](C)NC4=O)n1 [Form A] ; solubility at 1 day = > 50 mg/mL

* * *

Test: Approximate solubility of Compound 1 Form A at room temperature
Format: physicochemical
Settings: THF/water (1:1), aqueous with cosolvent or surfactant or cyclodextrin, thermodynamic from solid, THF/water (1:1), 1 day
readoutKind: solubility at 1 day

Entry CCOCc1cnc(Cl)nc1Oc1ccc2c(ccc3sc4c(c32)NC[C@@H](C)NC4=O)n1 [Form A] ; solubility at 1 day = 8 to 16 mg/mL

* * *

Assay: Approximate solubility of Compound 1 Form A at room temperature
Format: physicochemical
Conditions: 2-MeTHF (2-methyltetrahydrofuran), organic solvent or mixture, thermodynamic from solid, 2-MeTHF, 1 day
readoutKind: solubility at 1 day

Entry CCOCc1cnc(Cl)nc1Oc1ccc2c(ccc3sc4c(c32)NC[C@@H](C)NC4=O)n1 [Form A] ; solubility at 1 day = < 2000 µg/mL

* * *

Assay: Approximate solubility of Compound 1 Form A at room temperature
Type: physicochemical
Settings: MeOAc (methyl acetate), organic solvent or mixture, thermodynamic from solid, MeOAc, 1 day
readoutKind: solubility at 1 day

Entry CCOCc1cnc(Cl)nc1Oc1ccc2c(ccc3sc4c(c32)NC[C@@H](C)NC4=O)n1 [Form A] ; solubility at 1 day = < 2000 µg/mL
